Listing of entries alongside the reported GI50.
Tested on: BT-549
Assay: Growth inhibition of human BT549 cells after 48 hrs by Sulforhodamine B assay
Type: functional
Settings: BT-549, 48 h
ASSAY_READOUT: GI50 (µM)

| SMILES_STR | TARGET_SYSTEM | QUALIFIER_OPERATOR | REPORTED_VALUE |
| --- | --- | --- | --- |
| O=c1[nH]c(-c2ccccn2)nc2sc3c(c12)CCCCCC3 | BT-549 | = | 5.62 |
| COc1ccc(N2CCN(c3nc(-c4ccccn4)nc4sc5c(c34)CCCCCC5)CC2)cc1 | BT-549 | = | 6.92 |
| NNc1nc(-c2ccccn2)nc2sc3c(c12)CCCCCC3 | BT-549 | = | 9.77 |
| O=c1[nH]c(-c2ccncc2)nc2sc3c(c12)CCCCCC3 | BT-549 | > | 100 |
| c1ccc(-c2nc(N3CCOCC3)c3c4c(sc3n2)CCCCCC4)nc1 | BT-549 | = | 4.37 |
| CN1CCN(c2nc(-c3ccncc3)nc3sc4c(c23)CCCCCC4)CC1 | BT-549 | = | 6.31 |
